Tested on: K-562 leukemia
Assay: NCI-60 one-dose screen, 48 h
Details: 10 µM unless noted
About 83,000 compounds went through this panel and 20% of them were active in at least one assay; those are over-represented in the sample as a whole. Active and inactive are the calls of the source. The calls were made as follows: active = growth percent below 10; inactive = the rest.
Please state which outcome applies, choosing from active, inactive

Completed entries (count: 5):
Cc1c(C(N)=O)sc2nc(SCC(=O)Nc3ccc(Cl)cc3)n(-c3ccccc3)c(=O)c12 ... inactive
O=C(/C=C/c1ccc(Cl)cc1)c1ccccc1 ... inactive
Oc1ccc(-c2nn(-c3ccccc3)cc2-c2nc3ccccc3s2)cc1 ... inactive
COc1ccc2c(c1)[nH]c(=O)c1c3cc(OC)c(OC)cc3cn21 ... active
c1coc([C@@H]2C[C@@H]3Cc4ccc5ccccc5c4N2O3)c1 ... inactive

// query GET /call?item= CC1(C)OC(=O)C(=Cc2ccccc2Br)C(=O)O1 returns the recorded outcome of this test.
// result inactive

---

Tested on: SN12C renal
Assay: NCI-60 one-dose screen, 48 h (100 = growth as untreated, 0 = no growth, -100 = all killed)
Conditions: 10 µM unless noted
Compounds without any hit were thinned out: in the full panel of roughly 83,000, 20% have a hit.
I'd appreciate it if you marked entries yes (1) when growth is lower than 90% and no (0) when it is not.

Completed entries (count: 5):
Cc1ccc(NC(=O)COC(=O)c2ccc(S(=O)(=O)N3CCCCCC3)cc2)cc1 ... no (0)
O=C(C(=O)N1CCOCC1)c1ccc(OC2OC(CO)C(O)C(O)C2O)cc1 (centres undefined) ... no (0)
c1ccc2c(c1)[nH]c1c2cc[n+]2cc3c(cc12)CCCC3 ... yes (1)
Nc1ccc(S(=O)(=O)Nc2ncccn2)cc1 ... no (0)
Nc1nc(SCc2ccccc2Cl)c(-c2ccccc2)c(SCc2ccccc2Cl)n1 ... no (0)

// query Quick check: does Cc1c(NCc2nnc3n(Cc4ccccc4)c(=O)c4c5c(sc4n23)CCCC5)c(=O)n(-c2ccccc2)n1C have growth under 90%?
// result no (0)

// query Quick check: does Oc1ccc(-c2nn(-c3ccccc3)cc2-c2nc3ccccc3s2)cc1 have growth under 90%?
// result yes (1)

// query Quick check: does O=[P@@]1(c2ccccc2)O[C@H](COCc2ccccc2)[C@@H](OCc2ccccc2)[C@H](OCc2ccccc2)[C@H]1NCc1ccccc1 have growth under 90%?
// result yes (1)

// query Quick check: does Cc1ccc(C=C2C(Cl)=C(Cl)C(Cl)=C2Cl)cc1 have growth under 90%?
// result yes (1)

// query Quick check: does CN(C)c1nc(-c2ccco2)n2nc(-c3ccco3)cc2n1 have growth under 90%?
// result no (0)

// query Quick check: does NC(N)=NN=c1c(=O)c2ccccc2c1=O have growth under 90%?
// result yes (1)

// query Quick check: does CCC(O)C(C)(C)C (centres undefined) have growth under 90%?
// result no (0)

---

System: LOX IMVI melanoma
Experiment: NCI-60 one-dose screen, 48 h (100 = growth as untreated, 0 = no growth, -100 = all killed)
Settings: 10 µM unless noted
Compounds without any hit were thinned out: in the full panel of roughly 83,000, 20% have a hit.
reported.property: growth (%)
Write the number in % without appending the unit.

Worked examples follow.
C[n+]1c2ccccc2c(NC2CCNCC2)c2[nH]c3ccccc3c21 ... 13.2
OC(CCC(O)(c1ccccc1)c1ccccc1)(c1ccccc1)c1ccccc1 ... 71.4
CN1C(=O)/C(=C/c2nc(-c3cccc(F)c3)n3ccccc23)c2ccccc21 ... 48.8
CCCCCCCCCCSc1ncnc2nc[nH]c12 ... 56.3
CC[C@@H]1OC(=O)[C@H](C)[C@@H](O[C@H]2C[C@@](C)(OC)[C@@H](O)[C@H](C)O2)[C@H](C)[C@@H](O[C@@H]2O[C@H](C)C[C@H](N(C)C)[C@H]2O)[C@](C)(O)C[C@@H](C)[C@@H]2N[C@@H](COCCOC)O[C@H]([C@H]2C)[C@]1(C)O ... 94.8
CC(O)c1nc2c(c(=O)n(C)c(=O)n2C)n1C (stereo not given) ... 104
OC(Cc1cccnc1)c1ccccc1 (stereo not given) ... 101
Cc1cc(C)n2nc(SCC(=O)Nc3sc4c(c3C(N)=O)CCC4)nc2n1 ... 105

// query Tell me reported growth for CCCc1nn(C)c2c(=O)[nH]c(-c3cc(S(=O)(=O)N4CCN(C)CC4)ccc3OCC)nc12 , tested with LOX IMVI melanoma.
// result 93.9

// query Tell me reported growth for Cc1cc(Cl)ccc1Nc1nc(C(F)(F)F)ccc1C(=O)NCC(=O)N/N=C/c1c(Cl)cccc1Cl , tested with LOX IMVI melanoma.
// result 56.3
